Listed here are compounds together with their documented TGI.
- Tested on: HCC-2998 colon
- protocolNotes: NCI tumour cell line growth inhibition, 48 h
All answers are understood in µM, so give the number only.

molSmiles	quantitativeReadout
NS(=O)(=O)c1ccc(-n2nc3c(c2-c2ccc(Cl)cc2)Cc2ccccc2-3)cc1	35.7

Query string: I'm curious: which TGI was measured for CSc1ccc(-c2cc(-c3nc4ccccc4[nH]3)no2)cc1 tested on HCC-2998 colon?
Result string: 32.1

====

- Test system: A498 renal
- protocolNotes: NCI tumour cell line growth inhibition, 48 h
TGI of 30 µM or higher: Condition met. Under 30 µM: Condition not met.

molecule	class
CC(=O)Oc1ccc(C23c4ccccc4C2(OC(C)=O)c2cc(OC(C)=O)ccc23)cc1 (centres undefined)	Condition met

Query string: For this molecule, is measured TGI 30 µM or higher? O=S(=O)(NCCNc1nccc(-c2c(-c3ccc(F)c(O)c3)nc3sccn23)n1)c1ccc(F)cc1
Result string: Condition not met

Query string: Reported TGI at or above 30 µM? COc1ccc(-c2cs/c(=N\N=C\c3ccc(O)cc3O)n2/N=C/c2ccc(O)cc2O)cc1
Result string: Condition not met

Query string: Identify whether the reported TGI of the following molecule is 30 µM or greater: COc1c(/C=C/C(C)(C)O)cc(C2CC(=O)c3c(O)cc(O)cc3O2)cc1CC=C(C)C (centres undefined)
Result string: Condition not met

Query string: Hi team, for O=S(=O)(NC1=NCCN1C(=S)SN1CCn2c1nsc2=S)c1cccc2ccccc12 , is the recorded TGI at or above 30 µM?
Result string: Condition met

Query string: # bool: TGI of Nc1[nH]nc(Nc2ccc(Cl)cc2)c1P(=O)(c1ccccc1)c1ccccc1 >= 30 µM
Result string: Condition met

====

- Tested on: MCF7 breast
- protocolNotes: NCI tumour cell line growth inhibition, 48 h
TGI listing for selected compounds.

Recorded TGI, per entry:
compound	TGI
O=[N+]([O-])c1cc(Cl)c2[nH]c3c(Cl)cc([N+](=O)[O-])cc3c2c1	> 100 µM
CC(C)(C)OC(=O)N(CCCCNC(=O)OCc1ccccc1)CCCNC(=O)OCc1ccccc1	> 100 µM
O=C(c1nc2ccc([N+](=O)[O-])cc2[nH]c1=O)C(O)c1ccc2c(c1)OCO2 (configuration not stated)	> 100 µM

Query string: Field request: TGI | item: O=C(/C=C/c1ccc(-c2ccccc2)cc1)NCc1ccc(C(=O)NCc2ccccc2)cc1
Result string: > 100 µM

Query string: Fill blank: measured TGI of the compound O=C(O)C(O)C(O)C(=O)O (configuration not stated) is ____.
Result string: > 100 µM

Query string: Can you share its TGI? I mean this compound: CN(CCCCCl)P(=O)(OCCS(=O)(=O)CC(NC(=O)CCC(N)C(=O)O)C(=O)NC(C(=O)O)c1ccccc1)OCC1OC(n2ccc(N)nc2=O)C(F)(F)C1O (configuration not stated)
Result string: > 100 µM

Query string: Need TGI of CCCC(CCC(N)=O)(CCC(N)=O)[N+](=O)[O-] , thanks.
Result string: > 100 µM

====

- System: MDA-MB-231 breast
- protocolNotes: NCI tumour cell line growth inhibition, 48 h
quantity: TGI

compound	result
C[C@@H]1C[C@H](C)CN(S(=O)(=O)c2ccc3c(NO)c4ccc(S(=O)(=O)N5C[C@H](C)C[C@H](C)C5)cc4c(N=O)c3c2)C1	0.234 µM

Query string: Please report the recorded TGI for COC(=O)C1Cc2cc3c(cc2C1=O)CCCC3 (centres undefined) .
Result string: > 100 µM

Query string: Value lookup for TGI; key = CN(CCCCCl)P(=O)(OCCS(=O)(=O)CC(NC(=O)CCC(N)C(=O)O)C(=O)NC(C(=O)O)c1ccccc1)OCC1OC(n2ccc(N)nc2=O)C(F)(F)C1O (centres undefined)
Result string: > 100 µM

Query string: Dear colleague, I am looking for the recorded TGI of the following compound: CN(C(=O)Cc1ccccc1)n1cnn(CC(=O)OC(C)(C)C)c1=S
Result string: > 10 µM
